target: Substance-K receptor (Mesocricetus auratus); experiment: Antagonist activity against Tachykinin receptor 2 was measured by Hamster isolated trachea(HT) assay.; format: functional, tissue-based; conditions: read-out: pA2 (converted)
Sequence (P51144 whole entry): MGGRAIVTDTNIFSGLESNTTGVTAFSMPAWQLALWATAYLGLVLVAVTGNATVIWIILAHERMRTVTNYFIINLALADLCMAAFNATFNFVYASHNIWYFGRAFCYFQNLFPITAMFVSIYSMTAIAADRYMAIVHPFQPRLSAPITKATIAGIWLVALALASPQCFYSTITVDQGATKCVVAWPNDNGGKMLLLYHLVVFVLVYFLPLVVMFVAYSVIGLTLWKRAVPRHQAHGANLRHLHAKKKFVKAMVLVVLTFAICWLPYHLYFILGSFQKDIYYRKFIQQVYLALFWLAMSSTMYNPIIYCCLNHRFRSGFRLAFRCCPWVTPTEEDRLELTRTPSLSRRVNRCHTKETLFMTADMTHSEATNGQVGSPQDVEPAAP
Metric name: Kb (µM)

1: CC(C)[C@H](NC(=O)[C@@H](Cc1c[nH]c2ccccc12)NC(=O)[C@H](Cc1ccc(O)cc1)NC(=O)[C@@H](N)CC(=O)O)C(=O)N[C@H](Cc1c[nH]c2ccccc12)C(=O)N[C@H](Cc1c[nH]c2ccccc12)C(=O)N[C@@H](Cc1ccccc1)C(=O)O
2: CC(C)[C@H](NC(=O)[C@@H](Cc1c[nH]c2ccccc12)NC(=O)[C@H](Cc1ccc(O)cc1)NC(=O)[C@@H](N)CC(=O)O)C(=O)N[C@H](Cc1c[nH]c2ccccc12)C(=O)N[C@H](Cc1c[nH]c2ccccc12)C(=O)N[C@@H](Cc1ccc(O)cc1)C(=O)O
Task: # argmax over Kb for candidates 1 and 2 Refer to your chosen item by its label in the answer.
Output: 2
(2: 1.74 µM, 1: 0.933 µM)

###

target: Angiotensin-converting enzyme (Homo sapiens); assay: Biological activity was measured against Angiotensin I converting enzyme; details: read-out: Log 1/IC50 (converted)
Sequence (P12821 whole entry): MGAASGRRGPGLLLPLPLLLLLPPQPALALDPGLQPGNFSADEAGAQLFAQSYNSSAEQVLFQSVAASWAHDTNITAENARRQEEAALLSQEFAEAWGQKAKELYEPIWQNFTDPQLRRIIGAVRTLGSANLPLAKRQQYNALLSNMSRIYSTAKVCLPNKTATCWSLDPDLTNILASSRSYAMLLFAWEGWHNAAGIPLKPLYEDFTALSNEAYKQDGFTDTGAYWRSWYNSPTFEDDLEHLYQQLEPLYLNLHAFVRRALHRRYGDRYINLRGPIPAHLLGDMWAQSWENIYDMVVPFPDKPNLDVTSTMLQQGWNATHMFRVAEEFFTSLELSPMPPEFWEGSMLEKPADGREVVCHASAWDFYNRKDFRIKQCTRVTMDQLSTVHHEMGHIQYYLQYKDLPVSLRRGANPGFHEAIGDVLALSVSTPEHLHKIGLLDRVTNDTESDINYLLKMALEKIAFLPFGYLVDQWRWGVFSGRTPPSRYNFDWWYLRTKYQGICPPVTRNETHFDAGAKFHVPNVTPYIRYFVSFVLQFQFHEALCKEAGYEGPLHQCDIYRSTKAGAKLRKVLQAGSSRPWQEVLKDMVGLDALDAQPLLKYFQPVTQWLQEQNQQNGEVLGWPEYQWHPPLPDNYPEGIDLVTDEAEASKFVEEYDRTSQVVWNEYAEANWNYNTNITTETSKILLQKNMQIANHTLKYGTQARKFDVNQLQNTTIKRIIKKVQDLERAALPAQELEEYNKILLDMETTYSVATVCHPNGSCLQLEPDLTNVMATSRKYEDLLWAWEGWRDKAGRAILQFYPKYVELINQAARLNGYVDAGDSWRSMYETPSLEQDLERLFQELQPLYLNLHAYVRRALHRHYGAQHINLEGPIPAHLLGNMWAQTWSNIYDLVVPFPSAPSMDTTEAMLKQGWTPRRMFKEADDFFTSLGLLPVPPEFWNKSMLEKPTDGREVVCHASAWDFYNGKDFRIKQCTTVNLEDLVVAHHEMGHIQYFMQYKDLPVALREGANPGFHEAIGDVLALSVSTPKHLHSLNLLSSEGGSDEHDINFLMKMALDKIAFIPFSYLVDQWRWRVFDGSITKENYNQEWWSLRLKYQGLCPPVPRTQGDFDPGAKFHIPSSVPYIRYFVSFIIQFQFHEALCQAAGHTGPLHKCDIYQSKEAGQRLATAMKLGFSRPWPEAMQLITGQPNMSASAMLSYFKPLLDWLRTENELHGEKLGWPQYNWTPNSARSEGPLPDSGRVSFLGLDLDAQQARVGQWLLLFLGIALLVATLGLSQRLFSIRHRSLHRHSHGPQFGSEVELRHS
Peptide text beside a SMILES is read from it.
Metric name: IC50 (mM)

Compound: NCCCC[C@H](N)C(=O)NCC(=O)O (H-Lys-Gly-OH)
System under test: Angiotensin-converting enzyme (Homo sapiens)
Value units: mM
Assay result: 3.24
--
Compound: CC(C)C[C@H](N)C(=O)NCC(=O)O (H-Leu-Gly-OH)
System under test: Angiotensin-converting enzyme (Homo sapiens)
Value units: mM
Assay result: 8.71
--
Compound: N[C@@H](CC(=O)O)C(=O)NCC(=O)O (H-Asp-Gly-OH)
System under test: Angiotensin-converting enzyme (Homo sapiens)
Value units: mM
Assay result: 14.1
--
Compound: NCC(=O)NCC(=O)O (H-Gly-Gly-OH)
System under test: Angiotensin-converting enzyme (Homo sapiens)
Value units: mM
Assay result: 7.24
--
Compound: N=C(N)NCCC[C@H](N)C(=O)N1CCC[C@@H]1C(=O)O
System under test: Angiotensin-converting enzyme (Homo sapiens)
Value units: mM
Assay result: 0.182
--
Compound: C[C@H](N)C(=O)N[C@@H](Cc1ccc(O)cc1)C(=O)O (H-Ala-Tyr-OH)
System under test: Angiotensin-converting enzyme (Homo sapiens)
Value units: mM
Assay result: 0.0871
--
Compound: CC(C)C[C@H](NC(=O)[C@@H](N)Cc1c[nH]cn1)C(=O)O (H-His-Leu-OH)
System under test: Angiotensin-converting enzyme (Homo sapiens)
Value units: mM
Assay result: 3.24
--
Compound: C[C@H](NC(=O)[C@@H](N)Cc1ccc(O)cc1)C(=O)O
System under test: Angiotensin-converting enzyme (Homo sapiens)
Value units: mM
Assay result: 0.457

I: C[C@H](NC(=O)[C@@H](N)CCCN=C(N)N)C(=O)O (H-Arg-Ala-OH)
II: N=C(N)NCCC[C@H](NC(=O)CN)C(=O)O (H-Gly-Arg-OH)
Task: Which value of IC50 is smaller, the one for I or the one for II ? Refer to your chosen item by its label in the answer.
Output: I
(I: 0.457 mM, II: 3.24 mM)

###

biological target: Substance-K receptor (Rattus norvegicus); test: Antagonism against Tachykinin receptor 2 in rat vas deferens(RVD); format: functional; details: read-out: pA2 (converted)
Sequence (P16610 whole entry): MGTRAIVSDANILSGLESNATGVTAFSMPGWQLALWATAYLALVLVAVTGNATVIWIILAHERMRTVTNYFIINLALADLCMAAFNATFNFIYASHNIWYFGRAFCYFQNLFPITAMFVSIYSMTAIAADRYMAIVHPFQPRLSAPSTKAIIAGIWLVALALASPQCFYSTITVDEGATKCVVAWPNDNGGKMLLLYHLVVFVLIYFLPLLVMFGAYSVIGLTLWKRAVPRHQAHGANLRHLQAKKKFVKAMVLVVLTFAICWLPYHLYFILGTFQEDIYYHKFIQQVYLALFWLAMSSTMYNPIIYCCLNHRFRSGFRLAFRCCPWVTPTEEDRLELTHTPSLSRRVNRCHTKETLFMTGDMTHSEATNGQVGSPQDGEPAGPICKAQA
Metric name: Kb (µM)

1: CC(C)[C@H](NC(=O)[C@H](Cc1c[nH]c2ccccc12)NC(=O)[C@H](Cc1ccc(O)cc1)NC(=O)[C@@H](N)CC(=O)O)C(=O)N[C@H](Cc1c[nH]c2ccccc12)C(=O)N[C@H](Cc1c[nH]c2ccccc12)C(=O)N[C@@H](CCCN=C(N)N)C(=O)O
2: CC(C)[C@@H](NC(=O)[C@@H](Cc1c[nH]c2ccccc12)NC(=O)[C@@H](Cc1ccc(O)cc1)NC(=O)[C@@H](N)CC(=O)O)C(=O)NCC(=O)N[C@H](Cc1c[nH]c2ccccc12)C(=O)N[C@H](CCCN=C(N)N)C(=O)O
Task: # argmax over Kb for candidates 1 and 2 Refer to your chosen item by its label in the answer.
Output: 1

a: CSCC[C@H](NC(=O)[C@@H](Cc1c[nH]c2ccccc12)NC(=O)[C@@H](Cc1c[nH]c2ccccc12)NC(=O)[C@@H](NC(=O)[C@@H](Cc1c[nH]c2ccccc12)NC(=O)[C@H](Cc1ccc(O)cc1)NC(=O)[C@@H](N)CC(=O)O)C(C)C)C(=O)O
b: CC(C)[C@H](NC(=O)[C@@H](Cc1c[nH]c2ccccc12)NC(=O)[C@@H](Cc1c[nH]c2ccccc12)NC(=O)[C@@H](N)CC(=O)O)C(=O)N[C@H](Cc1c[nH]c2ccccc12)C(=O)N[C@H](Cc1c[nH]c2ccccc12)C(=O)N[C@@H](CCCN=C(N)N)C(=O)O
Task: Which value of Kb is smaller, the one for a or the one for b ? Refer to your chosen item by its label in the answer.
Output: a
(a: 0.38 µM, b: 2.4 µM)
